System: Vasopressin V1
Test: Vasopressin V1 Antagonist Activity in Conscious Rats (vasopressin vasopressor response)
Format: in vivo, rat
Parameters: unit not given here
Details: 10 mg/kg i.v., VAS 0.01 i.u./kg, 30 min, SHR
Please provide measured Average Change for the entries that follow.
Give the value as a plain number.

Could you share which Average Change value was measured for Cc1ccccc1C(=O)N(C)c1ccc(C(=O)N2Cc3cccn3Cc3ccccc32)cc1 ?
9

Could you share which Average Change value was measured for Cc1ccccc1C(=O)Nc1ccc(C(=O)N2Cc3cccn3-c3ccccc32)cc1 ?
26

Could you share which Average Change value was measured for O=C(Nc1ccc(C(=O)N2Cc3cccn3Cc3ccccc32)cc1)c1ccc(Cl)cc1Cl ?
5.5

Could you share which Average Change value was measured for O=C(Cc1ccccc1F)Nc1ccc(C(=O)N2Cc3cccn3Cc3ccccc32)cc1 ?
16.5

Could you share which Average Change value was measured for O=C(Nc1ccc(C(=O)N2Cc3cccn3Cc3ccccc32)cc1)c1ccccc1Cl ?
6

Could you share which Average Change value was measured for O=C(Nc1ccc(C(=O)N2Cc3cccn3Cc3ccccc32)cc1)C1CCCCC1 ?
12

Could you share which Average Change value was measured for Cc1c(CC(=O)Nc2ccc(C(=O)N3Cc4cccn4Cc4ccccc43)cc2)sc2ccccc12 ?
50

Could you share which Average Change value was measured for CSc1ccccc1C(=O)Nc1ccc(C(=O)N2Cc3cccn3Cc3ccccc32)cc1 ?
4.5

* * *

Please provide measured pIC50 for the entries that follow.
Molecular target: V1 Receptor Subtype in Human Platelet (Homo sapiens)
Construct: tissue Hudson Valley Blood Services, Westchester Medical Center, Valhalla, N.Y
Sequence (P37288 whole entry): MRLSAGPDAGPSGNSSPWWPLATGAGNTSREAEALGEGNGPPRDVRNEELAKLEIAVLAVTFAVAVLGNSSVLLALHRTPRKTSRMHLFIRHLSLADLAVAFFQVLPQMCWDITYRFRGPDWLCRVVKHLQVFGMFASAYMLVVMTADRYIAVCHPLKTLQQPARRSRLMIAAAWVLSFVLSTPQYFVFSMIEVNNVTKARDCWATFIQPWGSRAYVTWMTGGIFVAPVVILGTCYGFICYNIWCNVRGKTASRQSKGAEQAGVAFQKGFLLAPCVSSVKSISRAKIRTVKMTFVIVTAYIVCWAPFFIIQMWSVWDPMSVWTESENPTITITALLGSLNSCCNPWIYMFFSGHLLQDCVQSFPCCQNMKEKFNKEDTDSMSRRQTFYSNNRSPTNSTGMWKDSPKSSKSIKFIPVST
Test: Binding to Vasopressin V1 receptor subtype in Human Platelet Membranes;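 further: reported value is IC50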
Conditions: human platelet membranes
The meaning of pIC50 here: minus log10 of the concentration in molar units.

# get_value(readout= pIC50, system= V1 Receptor Subtype in Human Platelet (Homo sapiens)) for O=C(Nc1ccc(C(=O)N2Cc3cccn3Cc3ccccc32)cc1)c1ccccc1O
7.07

# get_value(readout= pIC50, system= V1 Receptor Subtype in Human Platelet (Homo sapiens)) for Cc1c(F)cccc1C(=O)Nc1ccc(C(=O)N2Cc3cccn3Cc3ccccc32)cc1Cl
7.18

# get_value(readout= pIC50, system= V1 Receptor Subtype in Human Platelet (Homo sapiens)) for CCCCC(=O)Nc1ccc(C(=O)N2Cc3cccn3Cc3ccccc32)cc1
8.11

# get_value(readout= pIC50, system= V1 Receptor Subtype in Human Platelet (Homo sapiens)) for COc1cc(C(=O)N2Cc3cccn3Cc3ccccc32)ccc1NC(=O)CC(C)C
8.70

# get_value(readout= pIC50, system= V1 Receptor Subtype in Human Platelet (Homo sapiens)) for O=C(Nc1ccc(C(=O)N2Cc3ccnn3Cc3ccccc32)cc1)c1ccc(Cl)cc1Cl
6.72

# get_value(readout= pIC50, system= V1 Receptor Subtype in Human Platelet (Homo sapiens)) for Cc1ccccc1C(=O)Nc1ccc(C(=O)N2Cc3cccn3Cc3ccccc32)cc1Cl
8.52

# get_value(readout= pIC50, system= V1 Receptor Subtype in Human Platelet (Homo sapiens)) for CSc1ccccc1C(=O)Nc1ccc(C(=O)N2Cc3cccn3Cc3ccccc32)c(Cl)c1
6.77

# get_value(readout= pIC50, system= V1 Receptor Subtype in Human Platelet (Homo sapiens)) for COc1cc(NC(=O)c2cc(F)ccc2C)ccc1C(=O)N1Cc2cccn2Cc2ccccc21
7.82

* * *

Target: oxytocin receptors (Rattus norvegicus, UniProt P70536)
Construct: The uteri are dissected out, cleaned of fat and connective tissues; from tissue; host or cells: uterus of DES-treated female Sprague-Dawley rats
Sequence (P70536 whole entry): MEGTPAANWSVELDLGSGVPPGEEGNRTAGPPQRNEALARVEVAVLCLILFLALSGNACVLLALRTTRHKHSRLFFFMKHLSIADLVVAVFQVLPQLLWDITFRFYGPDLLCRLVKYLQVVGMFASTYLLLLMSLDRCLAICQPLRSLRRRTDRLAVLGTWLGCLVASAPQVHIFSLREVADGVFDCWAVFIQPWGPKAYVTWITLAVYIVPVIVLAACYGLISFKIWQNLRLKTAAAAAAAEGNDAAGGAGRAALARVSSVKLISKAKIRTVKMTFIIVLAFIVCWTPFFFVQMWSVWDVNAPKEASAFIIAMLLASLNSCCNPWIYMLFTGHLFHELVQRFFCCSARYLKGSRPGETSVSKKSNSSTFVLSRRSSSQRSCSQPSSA
Experiment: Oxytocin Receptor Binding
Details: dose 10 μM, [3H]oxytocin
Please provide measured inhibition at 10 µM for the entries that follow.
Report the figure in % without appending any unit label.

# get_value(readout= inhibition at 10 µM, system= oxytocin receptors (Rattus norvegicus, UniProt P70536)) for O=C(CCl)Nc1ccc(C(=O)N2Cc3cccn3Cc3ccccc32)cc1
79

# get_value(readout= inhibition at 10 µM, system= oxytocin receptors (Rattus norvegicus, UniProt P70536)) for O=C(Nc1ccc(C(=O)N2CCc3cccn3-c3ccccc32)c(Cl)c1)c1ccc(Cl)cc1Cl
66

# get_value(readout= inhibition at 10 µM, system= oxytocin receptors (Rattus norvegicus, UniProt P70536)) for O=C(Nc1ccc(C(=O)N2Cc3cccn3Cc3ccccc32)cc1)c1cc(Cl)ccc1Cl
98

# get_value(readout= inhibition at 10 µM, system= oxytocin receptors (Rattus norvegicus, UniProt P70536)) for COC(=O)c1ccc(C(=O)Nc2ccc(C(=O)N3Cc4cccn4Cc4ccccc43)cc2)cc1
44

# get_value(readout= inhibition at 10 µM, system= oxytocin receptors (Rattus norvegicus, UniProt P70536)) for CCOC(=O)c1ccc2c(c1)N(C(=O)c1ccc(NC(=O)c3ccccc3C)cc1)Cc1cccn1C2
32

# get_value(readout= inhibition at 10 µM, system= oxytocin receptors (Rattus norvegicus, UniProt P70536)) for Cc1ccccc1C(=O)Nc1ccc(C(=O)O)c(Cl)c1
16

# get_value(readout= inhibition at 10 µM, system= oxytocin receptors (Rattus norvegicus, UniProt P70536)) for CCOC(=O)c1ccc2n1Cc1ccccc1N(C(=O)c1ccc([N+](=O)[O-])c(C)c1)C2
21

# get_value(readout= inhibition at 10 µM, system= oxytocin receptors (Rattus norvegicus, UniProt P70536)) for O=C(Nc1ccc(C(=O)N2Cc3cccn3Cc3ccccc32)cc1)c1c(Cl)cccc1Cl
96

# get_value(readout= inhibition at 10 µM, system= oxytocin receptors (Rattus norvegicus, UniProt P70536)) for CN(C)CN(C(=O)c1ccc(Cl)cc1Cl)c1ccc(C(=O)N2Cc3cccn3Cc3ccccc32)cc1
99

# get_value(readout= inhibition at 10 µM, system= oxytocin receptors (Rattus norvegicus, UniProt P70536)) for O=C(Nc1ccc(C(=O)N2Cc3cccn3Cc3ccccc32)c(Cl)c1)c1c(Cl)cccc1Cl
92

# get_value(readout= inhibition at 10 µM, system= oxytocin receptors (Rattus norvegicus, UniProt P70536)) for O=C(Nc1ccc(C(=O)N2Cc3ccc(CN4CCCC4)n3Cc3ccccc32)cc1)c1ccc(Cl)cc1Cl
97

# get_value(readout= inhibition at 10 µM, system= oxytocin receptors (Rattus norvegicus, UniProt P70536)) for Nc1ccc(C(=O)N2Cc3ccc(C(=O)C(F)(F)F)n3Cc3ccccc32)cc1
14

# get_value(readout= inhibition at 10 µM, system= oxytocin receptors (Rattus norvegicus, UniProt P70536)) for O=C(CN1CCOCC1)Nc1ccc(C(=O)N2Cc3cccn3Cc3ccccc32)cc1
12

# get_value(readout= inhibition at 10 µM, system= oxytocin receptors (Rattus norvegicus, UniProt P70536)) for Cc1cccc(C(=O)Nc2ccc(C(=O)N3Cc4cccn4Cc4ccccc43)c(Cl)c2)c1C
98

# get_value(readout= inhibition at 10 µM, system= oxytocin receptors (Rattus norvegicus, UniProt P70536)) for CCN(CC)Cc1ccc2n1Cc1ccccc1N(C(=O)c1ccc(NC(=O)c3ccc(Cl)cc3Cl)cc1)C2
89

# get_value(readout= inhibition at 10 µM, system= oxytocin receptors (Rattus norvegicus, UniProt P70536)) for O=C(Nc1ccc(C(=O)N2Cc3cccn3Cc3ccccc32)c(Cl)c1)c1ccc(Cl)cc1Cl
99

* * *

Please provide measured % Inhibition for the entries that follow.
Tested on: Vasopressin V1
Experiment: Vasopressin V1 Antagonist Activity in Conscious Rats (vasopressin vasopressor response)
Type: in vivo, rat
Settings: 10 mg/kg i.v., VAS 0.01 i.u./kg, 60 min, SHR
Report the figure in % without appending any unit label.

# get_value(readout= % Inhibition, system= Vasopressin V1) for Cc1ccccc1C(=O)Nc1ccc(C(=O)N2Cc3cccn3-c3ccccc32)cc1 [Example 14]
23

# get_value(readout= % Inhibition, system= Vasopressin V1) for CCOc1ccccc1C(=O)Nc1ccc(C(=O)N2Cc3cccn3Cc3ccccc32)cc1 [Example 84]
64

# get_value(readout= % Inhibition, system= Vasopressin V1) for COc1cc(Cl)ccc1C(=O)Nc1ccc(C(=O)N2Cc3cccn3Cc3ccccc32)cc1 [Example 89]
81

# get_value(readout= % Inhibition, system= Vasopressin V1) for Cc1ccsc1C(=O)Nc1ccc(C(=O)N2Cc3cccn3Cc3ccccc32)cc1 [Example 5]
76

# get_value(readout= % Inhibition, system= Vasopressin V1) for Cc1ccccc1NC(=O)Nc1ccc(C(=O)N2Cc3cccn3Cc3ccccc32)cc1 [Example 116]
38

# get_value(readout= % Inhibition, system= Vasopressin V1) for COc1ccccc1C(=O)Nc1ccc(C(=O)N2Cc3cccn3Cc3ccccc32)cc1 [Example 2]
74

# get_value(readout= % Inhibition, system= Vasopressin V1) for Cc1ccccc1C(=O)Nc1ccc(C(=O)N2Cc3ccc(Cl)n3Cc3ccccc32)cc1 [Example 41]
59

# get_value(readout= % Inhibition, system= Vasopressin V1) for Cc1cc(C(=O)N2Cc3cccn3Cc3ccccc32)ccc1NC(=O)c1ccc(Cl)cc1Cl [Example 99]
29

# get_value(readout= % Inhibition, system= Vasopressin V1) for O=C(Cc1ccccc1F)Nc1ccc(C(=O)N2Cc3cccn3Cc3ccccc32)cc1 [Example 357]
89

# get_value(readout= % Inhibition, system= Vasopressin V1) for O=C(Nc1ccc(C(=O)N2Cc3cccn3Cc3ccccc32)cc1)c1ccccc1F [Example 8]
61

# get_value(readout= % Inhibition, system= Vasopressin V1) for O=C(Nc1ccc(C(=O)N2Cc3cccn3Cc3ccccc32)cc1)c1ccccc1C(F)(F)F [Example 91]
87

# get_value(readout= % Inhibition, system= Vasopressin V1) for Cc1ccccc1CC(=O)Nc1ccc(C(=O)N2Cc3cccn3Cc3ccccc32)cc1 [Example 93]
94

# get_value(readout= % Inhibition, system= Vasopressin V1) for O=C(Nc1ccc(C(=O)N2Cc3cccn3Cc3ccccc32)cc1)c1cccc(F)c1F [Example 1]
51

# get_value(readout= % Inhibition, system= Vasopressin V1) for Cc1cc(C(=O)N2Cc3cccn3Cc3ccccc32)ccc1N [Example 95]
78

# get_value(readout= % Inhibition, system= Vasopressin V1) for CSc1ccccc1C(=O)Nc1ccc(C(=O)N2Cc3cccn3Cc3ccccc32)cc1 [Example 85]
74

# get_value(readout= % Inhibition, system= Vasopressin V1) for O=C(Nc1ccc(C(=O)N2Cc3cccn3Cc3ccccc32)cc1)c1ccccc1Cl [Example 7]
87

# get_value(readout= % Inhibition, system= Vasopressin V1) for O=C(Nc1ccc(C(=O)N2Cc3cccn3Cc3ccccc32)cc1)c1ccc(Cl)cc1Cl [Example 6]
79

# get_value(readout= % Inhibition, system= Vasopressin V1) for O=C(Nc1ccc(C(=O)N2Cc3cccn3Cc3ccccc32)cc1)C1CCCCC1 [Example 358]
64

# get_value(readout= % Inhibition, system= Vasopressin V1) for Cc1ccccc1C(=O)N(C)c1ccc(C(=O)N2Cc3cccn3Cc3ccccc32)cc1 [Example 384]
62

Where do these numbers come from? They come from patent US5624923A.
